Target: neuraminidase from the H1N9 strain of influenza (Influenza A virus)
Test: biochemical
The entries below are paired with their reported log10(IC50).
observable: log10(IC50) (log10 of the value in µM)

[
  {
    "compound": "NCC1CCC(=O)N1c1ccc(C(=O)O)cc1N=C(N)N (centres unmarked) [Example 4]",
    "observable": "log10(IC50)",
    "assay_value": 3.41
  },
  {
    "compound": "N=C(N)Nc1cc(C(=O)O)ccc1N1C(=O)CCC1(CO)CO [Example 6]",
    "observable": "log10(IC50)",
    "assay_value": 0.70
  },
  {
    "compound": "O=C(O)c1ccc(N2C(=O)CCC2(CO)CO)cc1 [Example 5]",
    "observable": "log10(IC50)",
    "assay_value": 2.85
  },
  {
    "compound": "CCC(CC)Nc1cc(C(=O)O)ccc1N1C(=O)CCC1(CO)CO [Example 8]",
    "observable": "log10(IC50)",
    "assay_value": -1.32
  },
  {
    "compound": "CCCC(CC)Nc1cc(C(=O)O)ccc1N1C(=O)CCC1(CO)CO (centres unmarked) [Example 9]",
    "observable": "log10(IC50)",
    "assay_value": 2.06
  },
  {
    "compound": "CCCC(CCC)Nc1cc(C(=O)O)ccc1N1C(=O)CCC1(CO)CO [Example 10]",
    "observable": "log10(IC50)",
    "assay_value": 0.74
  },
  {
    "compound": "CCC(CC)Nc1cc(C(=O)O)ccc1N1CCCC1=O [Example 7]",
    "observable": "log10(IC50)",
    "assay_value": 2.34
  }
]

====

Molecular target: Influenza NA Type B B/Lee (Influenza B virus)
Test: Inhibition of influenza neuraminidase (B/Lee)
pIC50: −log10 of the molar value.
The entries below are paired with their reported pIC50.

[
  {
    "compound": "CCC(CC)Nc1cc(C(=O)O)ccc1N1C(=O)CCC1(CN)CO (centres unmarked)",
    "pIC50": 4.31
  },
  {
    "compound": "CCC(CC)Nc1cc(C(=O)O)ccc1N1C(=O)CCC1(CO)CO",
    "pIC50": 4.03
  }
]
